- Tested on: Methicillin Resistant Staphylococcus aureus strain USA 300, NRS384
- testDescription: Minimum inhibitory concentration, broth micro-dilution (CLSI), S. aureus
- Type: cell-based
- details: Staphylococcus aureus, MRSA / NRS 384 / USA300, 22 h, MRSA USA 300 NRS384; 35° C., 22 hours; read-out: MIC (μg/mL) S. aureus
observedProperty: MIC (µg/mL)
Respond with the bare value in µg/mL.

QUERY: Answer with reported MIC of C[C@@H]1NC(=O)[C@@H](N(C)C(=O)[C@H](CCN)NC(=O)c2ccc(OCC(C)(C)C)c3ccccc23)c2ccc(OCCN)c(c2)-c2cc(ccc2OCCN)C[C@@H](C(=O)NCC#N)NC1=O
RESULT: 0.047

QUERY: Answer with reported MIC of CCCCOc1ccc(-c2ncc(C(=O)N[C@@H](CCN)C(=O)N(C)[C@@H]3C(=O)N[C@@H](C)C(=O)N[C@H](C(=O)NCC#N)Cc4ccc(OCCN)c(c4)-c4cc3ccc4OCCN)c(C)n2)cc1
RESULT: 0.047

QUERY: Answer with reported MIC of CCCCCCCCCCCCCC(=O)N[C@@H](CCN)C(=O)N(C)[C@@H]1C(=O)N[C@@H](C)C(=O)N[C@H](C(=O)NCC#N)Cc2ccc(OCCO)c(c2)-c2cc1ccc2OCCN
RESULT: 0.13

QUERY: Answer with reported MIC of CCCCc1ccc(Oc2ccc(C(=O)N[C@@H](CCN)C(=O)N(C)[C@@H]3C(=O)N[C@@H](C)C(=O)N[C@H](C(=O)NCC#N)Cc4ccc(OCCN)c(c4)-c4cc3ccc4OCCN)c(C)c2)cc1
RESULT: 0.047

QUERY: Answer with reported MIC of CCCCCCCCCCCCCC(=O)N[C@@H](CCCN)C(=O)N(C)[C@@H]1C(=O)N[C@@H](C)C(=O)N[C@H](C(=O)NCC#N)Cc2ccc(OCCN)c(c2)-c2cc1ccc2OCCN
RESULT: 0.063

Origin of the recorded values: patent US20180327367A1
